Source listed as paper PMC12621200.

# Lookup of reported AC50 keyed by entry
target-desc: OGG1 (Homo sapiens, UniProt O15527)
Construct: made in house
Sequence (O15527 whole entry): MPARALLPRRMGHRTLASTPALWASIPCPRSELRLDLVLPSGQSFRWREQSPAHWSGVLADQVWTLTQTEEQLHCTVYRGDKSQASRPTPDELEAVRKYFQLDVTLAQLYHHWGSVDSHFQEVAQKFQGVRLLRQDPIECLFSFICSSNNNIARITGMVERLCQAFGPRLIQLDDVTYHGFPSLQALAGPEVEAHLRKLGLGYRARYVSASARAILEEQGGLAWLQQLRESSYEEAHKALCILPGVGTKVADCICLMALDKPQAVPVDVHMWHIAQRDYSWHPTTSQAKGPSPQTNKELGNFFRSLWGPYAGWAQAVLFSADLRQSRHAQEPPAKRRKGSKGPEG
method-description: Biochemical fluorescence (fluorophore-quencher) assay of OGG1 incision rate, 8-oxoA substrate
condition-details: concentration giving 50% of the incision rate of OGG1 with APE1 (2 nM) control; read-out: AC50 (CI95%)
State the answer as a number, implicitly in nM.

What the record says about c1ccc2c(NC3CCCCC3)nc(C3CC3)nc2c1 [TH10785, reference compound] : AC50 is 870

What the record says about c1cncc(-c2cc3ccccc3[nH]2)c1 [Compound 10, 2-(Pyridin-3-yl)-1H-indole] : AC50 is 1700

What the record says about NCCc1[nH]c2ccc(O)cc2c1-c1cncnc1 [Compound 53] : AC50 is 12000

What the record says about Oc1ccc2[nH]c(-c3cccnc3)cc2c1 [Compound 15, 2-(Pyridin-3-yl)-1H-indol-5-ol] : AC50 is 6000

What the record says about NCCc1c(-c2cncnc2)[nH]c2ccc(O)cc12 [Compound 44] : AC50 is 250

Next, consider the following molecule.
What the record says about NCCc1c(-c2cncc(F)c2)[nH]c2ccc(O)cc12 [Compound 41] : AC50 is 740

* * *

method-description: Caco-2 permeability assay
Assay type: in vitro ADME
condition-details: human, Caco-2, pH 7.4; P app (B to A) / P app (A to B)
measurement-label: efflux ratio at 90 min, 10 μM

What the record says about c1ccc2c(NC3CCCCC3)nc(C3CC3)nc2c1 [TH10785, reference compound] : efflux ratio at 90 min, 10 μM is 3.3

Next, consider the following compound.
What the record says about NCCc1c(-c2cccnc2)[nH]c2ccc(O)cc12 : efflux ratio at 90 min, 10 μM is 4.1

* * *

target-desc: OGG1 (Homo sapiens)
Construct: made in house
method-description: Biochemical fluorescence (fluorophore-quencher) assay of OGG1 incision rate, 8-oxoA substrate
condition-details: concentration giving 50% of the incision rate of OGG1 with APE1 (2 nM) control; read-out: AC50 (CI95%)
# Lookup of reported AC50 keyed by entry
State the answer as a number, implicitly in µM.

Given the compound Cc1ccc(-c2cc3ccccc3[nH]2)cn1 [Compound 23, 2-(6-Methylpyridin-3-yl)-1H-indole] and test system OGG1 (Homo sapiens), the measured AC50 is 14

Given the compound NCCc1c(-c2cccnc2)[nH]c2cc(F)c(O)cc12 [Compound 38] and test system OGG1 (Homo sapiens), the measured AC50 is 0.04

Given the compound Nc1ccc(-c2cc3ccccc3[nH]2)cn1 [Compound 19, 5-(1H-Indol-2-yl)-pyridin-2-amine] and test system OGG1 (Homo sapiens), the measured AC50 is 9.3

Next, consider the following compound.
Given the compound NCCc1c(-c2cccnc2)[nH]c2ccc(F)cc12 [Compound 34] and test system OGG1 (Homo sapiens), the measured AC50 is 6.4
